- target or test system: cynomolgus monkey (cyno) TIGIT protein (cynomolgus monkey, UniProt A0A7N9I9V4 89-209)
- Sequence (A0A7N9I9V4 entry or part of it): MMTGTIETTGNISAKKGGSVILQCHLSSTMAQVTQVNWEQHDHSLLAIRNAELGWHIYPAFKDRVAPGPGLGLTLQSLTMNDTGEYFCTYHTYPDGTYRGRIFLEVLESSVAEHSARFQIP
- protocol: SPR, captured mAb
endpoint: koff

[[record]]
binder = "h7E7.L5H1 (antibody, V domains shown, VL: I58V, Y71F, F87Y against h7E7.L1H1; FR/HVR pieces) VH: EVQLVQSGAEVKKPGASVKVSCKASGYTFTEYSIYWVRQAPGQRLEIIGRIDPKNGRTYYVDKFKNRATLTADTSASTAYMELSSLRSEDTAVYFCTRIYGFYFDFWGQGTLVTVSS VL: DIQLTQSPSFLSASVGDRVTITCKGSQNVNKYLVWYQQKPGKAPKLLIYNTDNLQSGVPSRFSGSGSGTEFTLTISSLQPEDFATYYCYQYNNGFTFGQGTKVEIK"
endpoint = "koff"
result = "0.000324 s⁻¹"

[[record]]
binder = "h15C8.L1H5 (antibody, V domains shown, VH: A67V against h15C8.L1H1; FR/HVR pieces) VH: EVQLVQSGAEVKKPGASVKVSCKASGYTFTEHSIYWLRQAPGQRLEIIGRIDPKNGRTYFVDKFKNRVTLTTDTSASTAYMELSSLRSEDTAVYFCARIDGFYFDFWGQGTLVTVSS VL: DIQLTQSPSFLSASVGDRVTITCKGSQNVNKYLVWYQQKPGKAPKLLIYSTDNLQSGIPSRFSGSGSGTEYTLTISSLQPEDFATYFCYQYNNGFTFGQGTKVEIK"
endpoint = "koff"
result = "0.000558 s⁻¹"

[[record]]
binder = "h7E7.L1H7 (antibody, V domains shown, VH: F91Y against h7E7.L1H1; FR/HVR pieces) VH: EVQLVQSGAEVKKPGASVKVSCKASGYTFTEYSIYWVRQAPGQRLEIIGRIDPKNGRTYYVDKFKNRATLTADTSASTAYMELSSLRSEDTAVYYCTRIYGFYFDFWGQGTLVTVSS VL: DIQLTQSPSFLSASVGDRVTITCKGSQNVNKYLVWYQQKPGKAPKLLIYNTDNLQSGIPSRFSGSGSGTEYTLTISSLQPEDFATYFCYQYNNGFTFGQGTKVEIK"
endpoint = "koff"
result = "0.000286 s⁻¹"

